Test system: HCT116
Test: efficacy (fitted maximal change in viability relative to DMSO control); higher = less cytotoxic (negative = loss of viability)
Settings: 48 h
Quick rule for you: efficacy at -30% or higher means label 1, lower means label 0.

[[record]]
molecule = "CC1=N[NH]C=C1C2=CC\\3=C(S2)C(=O)NC(=N3)\\[C@@H]4CC5CCN4CC5"
system = "HCT116"
classification = "label 0"

[[record]]
molecule = "CC(C)CNc1ccnc(NCc2csc(-c3ccccc3)n2)n1"
system = "HCT116"
classification = "label 0"

[[record]]
molecule = "COC[C@@H](c1ccc(C(F)(F)F)cc1)N1CCN(C2(C)CCN(C(=O)c3c(C)ncnc3C)CC2)C[C@@H]1C"
system = "HCT116"
classification = "label 1"

[[record]]
molecule = "CCC(C)C(N)\\C1=N\\C(CS1)C(=O)N[C@@H](CC(C)C)C(=O)N[C@H](CCC(O)=O)C(=O)N[C@@H]([C@@H](C)CC)C(=O)N[C@H]2CCCCNC(=O)[C@H](CC(N)=O)NC(=O)[C@@H](CC(O)=O)NC(=O)[C@H](CC3=CN=C[NH]3)NC(=O)[C@@H](CC4=CC=CC=C4)NC(=O)[C@@H](NC(=O)[C@@H](CCCN)NC2=O)[C@@H](C)CC (some centres undefined) [Bacitracin (Zinc)]"
system = "HCT116"
classification = "label 1"

[[record]]
molecule = "CNC(=O)c1ccc2c(c1)NC(=O)/C2=C(\\Nc1cccc(CN(C)C)c1)c1ccccc1"
system = "HCT116"
classification = "label 0"

[[record]]
molecule = "N#CN1CCC[C@@H](n2nc(-c3ccc(Oc4ccc(F)cc4F)cc3)c(C(N)=O)c2N)C1"
system = "HCT116"
classification = "label 0"

[[record]]
molecule = "Clc1ccc2c(N3CCN(CCCN4CCN(c5ccnc6cc(Cl)ccc56)CC4)CC3)ccnc2c1"
system = "HCT116"
classification = "label 1"

[[record]]
molecule = "NC1CCC(N[C@@H]2C[C@H]2c2ccccc2)CC1 (some centres undefined)"
system = "HCT116"
classification = "label 0"

[[record]]
molecule = "COc1ccc(C2CNC(=O)C2)cc1OC1CCCC1 (centres undefined)"
system = "HCT116"
classification = "label 1"

[[record]]
molecule = "C[N+](C)(C)CC(=O)O"
system = "HCT116"
classification = "label 0"

[[record]]
molecule = "C[N+](C)([O-])CCNc1ccc(NCC[N+](C)(C)[O-])c2c1C(=O)c1c(O)ccc(O)c1C2=O"
system = "HCT116"
classification = "label 0"

[[record]]
molecule = "CN[C@@H](C)C(=O)N[C@H]1CCCC[C@H]2CC[C@@H](C(=O)N[C@@H](c3ccccc3)c3cn(CCCCc4ccc(CCCCn5cc([C@@H](NC(=O)[C@@H]6CC[C@@H]7CCCC[C@H](NC(=O)[C@H](C)NC)C(=O)N76)c6ccccc6)nn5)cc4)nn3)N2C1=O"
system = "HCT116"
classification = "label 0"

[[record]]
molecule = "c1ccc2c(CCNc3ccc(Nc4ccncc4)cc3)c[nH]c2c1"
system = "HCT116"
classification = "label 0"


----------
Tested on: HCT116
Test: AC50 cell viability (CellTiter-Glo); higher = less potent
Conditions: 48 h
Counter-ions that a name gives are not always drawn.
readout: AC50 cell viability

[[record]]
compound = "O=C(c1ccc(F)cc1)N1CCC[C@H](c2nc(-c3ccc(F)cc3)no2)C1"
recorded_result = "14.8 µM"

[[record]]
compound = "Cc1nc(Nc2n[nH]c3c2CN(C(=O)N[C@H](CN(C)C)c2ccccc2)C3(C)C)c2sccc2n1"
recorded_result = "0.0186 µM"

[[record]]
compound = "CCOC1=CC=CC=C1N\\2C(=O)C3=C(C=CC=C3)\\N=C2C(C)N4CCN(CC4)C(=O)COC5=CC=C(Cl)C=C5 (stereo not drawn)"
recorded_result = "3.32 µM"

[[record]]
compound = "Nc1ncnc(Nc2ccc(OCc3ccccc3)c(Cl)c2)c1/C=N/OCCN1CCOCC1"
recorded_result = "26.3 µM"

[[record]]
compound = "O=C1CCc2ccc(OCCCCN3CCN(c4cccc(Cl)c4Cl)CC3)cc2N1"
recorded_result = "18.6 µM"

[[record]]
compound = "NCCOc1cc(C(=O)Nc2cc(OCCN)c3ccccc3n2)nc(C(=O)Nc2cc(OCCN)c3ccccc3n2)c1"
recorded_result = "18.6 µM"

[[record]]
compound = "c1cc(Nc2cc(C3CC3)n[nH]2)nc(Nc2ccc3nc[nH]c3c2)n1"
recorded_result = "0.235 µM"

[[record]]
compound = "COc1ccc(Cc2nccc3cc(OC)c(OC)cc23)cc1OC [Papaverine hydrochloride]"
recorded_result = "4.17 µM"


----------
Tested on: HCT116
Experiment: AC50 cell viability (CellTiter-Glo); higher = less potent
Details: 48 h
Structures can show the parent of a compound that is named as a salt.
readout: AC50 cell viability (µM)

[[record]]
compound = "OC1CCC(CC1)N2\\C=N/C3=C(C2=N)C(=C([N]3CC4=CC=CC=C4)C5=CC=CC=C5)C6=CC=CC=C6 (centres undefined)"
recorded_result = 2.95

[[record]]
compound = "C[C@@H]1CC[C@H]2[C@@H](C)C(=O)O[C@@H]3O[C@@]4(C)CC[C@@H]1[C@]32OO4"
recorded_result = 0.0295

[[record]]
compound = "CN(C)C[C@@H]1CC[N]2C=C(C3=C2C=CC=C3)C/4=C(/C(=O)NC4=O)C5=C[N](CCO1)C6=C5C=CC=C6 [Ruboxistaurin mesylate]"
recorded_result = 8.33

[[record]]
compound = "N#Cc1cccc(-c2c[nH]c3ncnc(N4CCOCC4)c23)c1"
recorded_result = 16.6


----------
System: HCT116
Test: efficacy (fitted maximal change in viability relative to DMSO control); higher = less cytotoxic (negative = loss of viability)
Details: 48 h
readout: efficacy

[[record]]
compound = "CCOC(=N)c1nc2ccc3ncnc(Nc4cc(F)c(F)cc4Cl)c3c2s1"
recorded_result = "-41.6%"

[[record]]
compound = "O=C(N[C@H]1CN2CCC1CC2)c1ccc(Cl)cc1"
recorded_result = "-55.8%"

[[record]]
compound = "CCNC(=O)c1cc2c(-c3cc(OCCN4CCCC4)c(Cl)cc3Cl)nc(N)nc2s1"
recorded_result = "-57.9%"

[[record]]
compound = "C/C(=N\\NC(=S)N1CCC1)c1ccccn1"
recorded_result = "-85.2%"

[[record]]
compound = "COc1ccc2c(c1OC)C(=O)O[C@H]2[C@H]1c2c(cc3c(c2OC)OCO3)CCN1C"
recorded_result = "-55.1%"

[[record]]
compound = "CC(C[N+](C)(C)C)OC(N)=O (stereo not drawn) [Bethanechol chloride]"
recorded_result = "-25.8%"

[[record]]
compound = "CCOC1=CC(=CC=C1C/2=N/[C@@](C)(C3=CC=C(Cl)C=C3)[C@](C)(N2C(=O)N4CCN(CC4)CC(=O)N5CCOCC5)C6=CC=C(Cl)C=C6)C(C)(C)C"
recorded_result = "-114%"

[[record]]
compound = "C=CC(=O)Nc1cccc(Nc2nc(Nc3ccc(OCCOC)cc3)ncc2F)c1"
recorded_result = "-107%"


----------
Test system: HCT116
Experiment: efficacy (fitted maximal change in viability relative to DMSO control); higher = less cytotoxic (negative = loss of viability)
Settings: 48 h
readout: efficacy (%)

[[record]]
molecule = "CN(N=O)C(=O)N[C@@H]1[C@@H](O)[C@H](O)[C@@H](CO)O[C@@H]1O"
scale_unit = "%"
recorded_result = -15.5

[[record]]
molecule = "CC(C)[C@H](CO)Nc1nc(Nc2cccc(Cl)c2)c2ncn(C(C)C)c2n1"
scale_unit = "%"
recorded_result = -110

[[record]]
molecule = "C=CCNC1=C2CC(C)CC(OC)C(O)C(C)/C=C(\\C)C(OC(N)=O)C(OC)/C=C/C=C(\\C)C(=O)NC(=CC1=O)C2=O (configuration not stated)"
scale_unit = "%"
recorded_result = -60.5

[[record]]
molecule = "CC(C)C(=O)OCC(=O)[C@@]12O[C@@H](O[C@@H]1C[C@H]3[C@@H]4CC\\C5=C\\C(=O)\\C=C/[C@]5(C)[C@H]4[C@@H](O)C[C@]23C)C6CCCCC6 [Ciclesonide]"
scale_unit = "%"
recorded_result = -78.4

[[record]]
molecule = "Nc1nc(NCCNc2ncc(-n3ccnc3)c(-c3ccc(Cl)cc3Cl)n2)ccc1[N+](=O)[O-]"
scale_unit = "%"
recorded_result = -32

[[record]]
molecule = "COc1cc(N2CCC(N)CC2)ccc1Nc1ncc(Cl)c(-c2c[nH]c3ccccc23)n1"
scale_unit = "%"
recorded_result = -137

[[record]]
molecule = "NC(=O)c1cnc(N[C@@H]2CCCC[C@@H]2N)nc1Nc1cccc(-n2nccn2)c1"
scale_unit = "%"
recorded_result = -90.7


----------
Test system: HCT116
Test: AC50 cell viability (CellTiter-Glo); higher = less potent
Settings: 48 h
Counter-ions that a name gives are not always drawn.
Listing of entries alongside the reported AC50 cell viability.
readout: AC50 cell viability (µM)

[[record]]
molecule = "O=C(c1c(F)ccc(N[S+](=O)([O-])N2CC[C@@H](F)C2)c1F)c1c[nH]c2ncc(-c3cnc(C4CC4)nc3)cc12 [PLX-8394]"
recorded_result = 13.2

[[record]]
molecule = "NC/1=N/C(=O)N(/C=C1)[C@@H]2O[C@H](CO)[C@@H](O)C2(F)F [Gemcitabine]"
recorded_result = 0.0263

[[record]]
molecule = "COc1ccc([S+](=O)([O-])N(C(C)=O)c2ccccc2/C=C/c2cc[n+]([O-])cc2)cc1 [IVX-214]"
recorded_result = 4.17

[[record]]
molecule = "COc1ccc(-c2nc(N3CCOCC3)c3sc(CN(C)c4ncc(C(=O)NO)cn4)cc3n2)cn1 [CUDC-907]"
recorded_result = 0.0372

[[record]]
molecule = "CC(C)[C@H](CO)Nc1nc(Nc2cccc(Cl)c2)c2ncn(C(C)C)c2n1 [Purvalanol A]"
recorded_result = 13.2

[[record]]
molecule = "CCCCCNC(=N)N/N=C/c1c[nH]c2ccc(OC)cc12 [Tegaserod maleate]"
recorded_result = 7.42

[[record]]
molecule = "O=C(Nc1ccnc(NC(=O)C2CC2)c1)c1c(Cl)cccc1Cl [GDC-046]"
recorded_result = 2.35

